- Test system: CCRF-CEM leukemia
- assay details: NCI tumour cell line growth inhibition, 48 h; in the data active = GI50 below about 0.43 µM; inactive = the rest
Outcome codes: Yes for active, No for inactive

> print(dat)
                                    compound       assay.target  classification
 1  C[Se]C(=O)CC1=C2C=C(F)C=CC2/C(=C\c2ccc(S(C)=O)cc2)C1C (stereo unspecified)  CCRF-CEM leukemia             Yes
 2  C=C(C)[C@H]1CC/C(C)=C/CCC(C)C(=O)CC/C(CO)=C\[C@@H]1O (stereo partly specified)  CCRF-CEM leukemia              No
 3  COc1ccc(/C=C\c2cc(OC)c(OC)c(OC)c2)c(NS(=O)(=O)c2ccc(C)cc2)c1O  CCRF-CEM leukemia             Yes
 4  CC(=O)N1CC(F)(F)c2c(Sc3ncc(N4CCC5(CC4)COC[C@H]5N)nc3N)cccc21  CCRF-CEM leukemia              No
 5  O=C(/C=C\c1ccnc2ccccc12)c1ccc([N+](=O)[O-])cc1  CCRF-CEM leukemia              No
 6  O=c1[nH]c(-c2ccc(C(F)(F)F)cc2)nc2c1CSCC2  CCRF-CEM leukemia              No
 7       COc1ccc(/C=C2\N=C3SC=C(N)N3C2=O)cc1  CCRF-CEM leukemia             Yes
 8  COC(=O)CCC1=C(C)c2cc3[n-]c(cc4nc(cc5[n-]c(cc1n2)c(CCC(=O)OC)c5C)C=C4C)cc3C.[Cd+2]  CCRF-CEM leukemia              No
 9  CN(Cc1cnc2nc(N)nc(N)c2n1)c1ccc(C(=O)NC(CCC(=O)O)C(=O)O)cc1 (stereo unspecified)  CCRF-CEM leukemia             Yes
10  COc1ccc(/C=C2\COc3ccc(-c4ccccc4)cc3C2=O)cc1O  CCRF-CEM leukemia              No
11  COc1ccc(C(O)c2cc3c(N)c(C(=O)Nc4cccc(Br)c4)sc3nc2C)cc1 (stereo unspecified)  CCRF-CEM leukemia             Yes
12        CN(C)c1ccc(/C=C/c2ccnc3ccccc23)cc1  CCRF-CEM leukemia              No
13  c1ccc(-c2nc(N3CCNCC3)c3nc(-c4ccccc4)oc3n2)cc1  CCRF-CEM leukemia              No
14  CCNCCNc1cc(-c2ccc(F)cc2)c(C#N)c2nc3ccccc3n12  CCRF-CEM leukemia              No
15  CC(=O)/C(C)=N/N/C(N)=N\S(=O)(=O)c1cc(C(=O)Nc2ccccc2)c(Cl)cc1SCc1ccccc1  CCRF-CEM leukemia              No
16  COc1ccc2c(c1)OC13Oc4cc(OC)ccc4C=C1CCCC3=C2  CCRF-CEM leukemia              No

###

- Tested on: OVCAR-5 ovarian
- assay details: NCI tumour cell line growth inhibition, 48 h
The molecules listed here are annotated with their TGI.
assay readout: TGI

> print(dat)
                                    molecule  experimental.result
 1     COC(=O)CCCCC/C(=C\C(=O)C(Cl)(Cl)Cl)OC             > 100 µM
 2  COc1ccc(C2S/C(=C\c3ccc(OC)cc3OC)C(=O)N2NC(=O)Cc2ccccc2)cc1 (stereo not drawn)             > 100 µM
 3  CN(Cc1cnc2nc(N)nc(N)c2n1)c1ccc(C(=O)NC(CCC(=O)O)C(=O)O)cc1 (stereo not drawn)             > 100 µM
 4          CC(C)(C)C=C=C(C(C)(C)C)P(=O)(O)O             > 100 µM
 5          CCCCCCCCCC(=O)CC(=O)c1c(O)cccc1O                64 µM
 6  C#Cc1ccc(NC(=O)c2ccc(/C=C/C(=O)c3nccn3C)cc2)cc1              1.19 µM
 7              O/N=C\c1cc(O)c(O)c(/C=N/O)c1             > 100 µM
 8  C=C(C)C1/C=C(/C(C)C)CC[C@]2(C)O[C@@H]2CC[C@H](C)CC1=O (stereo partly drawn)             > 100 µM
 9  CCNCCNc1cc(-c2ccc(F)cc2)c(C#N)c2nc3ccccc3n12              15.9 µM
10  COc1ccc2c(c1)c1cc(OC)ccc1n2CCCCOc1ccc(-c2c3ccccc3c(-c3ccc(OCCCCn4c5ccc(OC)cc5c5cc(OC)ccc54)cc3)c3ccccc23)cc1             > 100 µM
11  Cn1cnc([N+](=O)[O-])c1Sc1ncnc2c1ncn2C1OC(CO)C(O)C1O (stereo not drawn)             > 100 µM
12  COc1cc2c(c(OC)c1OC)C(=O)CC2N (stereo not drawn)             > 100 µM
13  CCN1/C(=C/C(C)=C/c2sc3ccccc3[n+]2CC)Sc2ccccc21              1.73 µM
14  C[N+]1(C)CN(c2ccccc2)C2(CCN(CCCC(=O)c3cccs3)CC2)C1=O             > 100 µM
15        Cc1cc2c(-c3ccccc3)cc(=O)[nH]c2cc1N             > 100 µM
16  COc1ccc2c(c1)OC13Oc4cc(OC)ccc4C=C1CCCC3=C2             > 100 µM
17                    NC(=O)N(O)c1cccc(Br)c1             > 100 µM
18   O=C(/C=C/c1ccco1)Nc1ncc(Cc2ccc(F)cc2)s1             > 100 µM
